Please respond with reported z-score for every item in the list.
- assay.text: E. coli DRC41 culture turbidity changes, primary screen, E. coli filamentation inducer project, strain DRC41, OD650, 48 h (AID 1152);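 also: E. coli MC1000 strain DRC41 lacking acrAB efflux pump and sulA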
- condition.set: E. coli DRC41 (acrAB sulA), higher = more signal, called active from +8 up or from −8 down
Answers are plain numbers.

[[record]]
compound = "C=CCc1cccc([C@@H]2[C@@H](C)CC[C@H]3C(=O)N4[C@H](c5cccc(CC=C)c5)[C@@H](C)CC[C@H]4C(=O)N23)c1"
property_label = "z-score"
value_observed = 0.0258


Can you give me z-score for all of these, one by one?
1. COc1ccc([Si](C)(C)[C@H]2[C@H](CC(=O)N(CCO)Cc3ccccc3)O[C@@]3(C(=O)N(C)c4ccccc43)[C@@H]2C)cc1
2. CCC#CCN(Cc1ccccc1Br)[C@H](/C=C/c1ccccc1)[C@@H](O)Cc1ccccc1
3. C=CCC(OC(C)=O)[C@@H]1[C@@H](N(Cc2cccc3ccccc23)C(=O)Cc2ccc(F)cc2)c2cc(OCCCO)ccc2N1C(=O)Cc1ccc2ccccc2c1 (stereo partly drawn)
4. C[C@]1(C(=O)NCCN2CCOCC2)c2ccccc2C(=O)N(Cc2ccccc2)[C@H]1c1ccc(CO)cc1

[1.28, 0.625, 0.576, 0.402]

// each listed compound needs a value for z-score
1. [N-]=[N+]=NCc1ccccc1C[C@]1(C(N)=O)N=C(c2ccc(OCCCO)cc2)O[C@H]1c1ccccc1CN=[N+]=[N-]
2. C/C(=N\O)C(=O)NCCCCCNC(=O)OCc1ccccc1
3. Cc1cc(C)c(C(O)C2C=CC3C(=O)N(C)C(=O)C3N2N2CCCCC2)c(C)c1 (stereo not drawn)
4. COCCOC(=O)N1C(=O)[C@@]2(c3cc(C#CC4=CCCCC4)ccc31)[C@H](C(=O)NC[C@H](O)c1ccccc1)[C@H]1C(=O)O[C@H](c3ccccc3)[C@H](c3ccccc3)N1[C@@H]2c1ccc(OCCO)cc1
5. O=C1O[C@@H](c2ccccc2)[C@@H](c2ccccc2)N2[C@@H](c3ccc(OCCO)cc3)[C@]3(C(=O)Nc4ccc(C#CCCO)cc43)[C@@H](C(=O)N3CCN(c4ncccn4)CC3)[C@H]12
6. COc1ccc([Si](C)(C)[C@@H]2[C@@H](CC(=O)N(CCO)Cc3ccccc3)O[C@]3(C(=O)N(Cc4cccc(N5CCC5=O)c4)c4ccccc43)[C@H]2C)cc1
7. Cc1ccc(S(=O)(=O)N[C@H]2COC(=O)CC=C[C@H](C)COC(=O)N[C@@H](C)C(=O)CC=C[C@@H]2C)cc1

1. 0.0277
2. 1.93
3. -1.06
4. -0.999
5. 0.533
6. 0.557
7. 0.0157

* * *

- assay.text: cell viability in Huh7 cells, primary screen, cytotoxicity control for HCV replication inhibitor project, CellTiter-Glo luminescence, basal, 48 h (AID 1143);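 also: Huh7 hepatoma cells carrying a hepatitis C replication reporter with no stimulus; test concentration not given here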
- condition.set: Huh7 HCV replicon, higher = more signal, called active from +8 up or from −8 down
property.label: z-score
Give bare numbers.

Consider the reported z-score for these molecules:
[[record]]
molecule = "C=CCOC(=O)[C@@H]1[C@H]2C(=O)O[C@H](c3ccccc3)[C@H](c3ccccc3)N2[C@H](c2ccc(OCCOC(=O)[C@H]3C[C@H]4C(=O)N[C@@H](CCCCNC(C)=O)C(=O)N4[C@H]3c3ccc(O)cc3)cc2)[C@@]12C(=O)Nc1ccc(I)cc12"
value_observed = -0.317

[[record]]
molecule = "CO[C@H]1COC(=O)CC=C[C@H](C)[C@@H](OC)COC(=O)CC=C[C@@H]1C"
value_observed = -0.909

[[record]]
molecule = "C=C(C)[C@@H]1CC=C(C(O)C2C=CC3C(=O)NC(=O)C3N2Nc2ccccn2)CC1 (some centres not stated)"
value_observed = 0.715

[[record]]
molecule = "C=CC[C@]1(C(N)=O)N=C(c2ccc(OCCCO)cc2)O[C@H]1c1ccccc1CN=[N+]=[N-]"
value_observed = -4.28

[[record]]
molecule = "CCOC(=O)C[C@H]1[C@H](OC(=O)Cc2ccc3c(c2)OCO3)[C@@H](NC(=O)CC(C)C)c2cc(OCCCO)ccc2N1C(=O)c1ccccc1"
value_observed = -0.957


Take each entry in turn and give its z-score.
1. CC1=C([C@H](O)CCc2ccccc2)[C@H](CO)[C@@H]2C(=O)N(Cc3ccccc3)C(=O)[C@@H]2C1
2. COc1ccc([Si](C)(C)[C@@H]2[C@@H](CCO)O[C@]3(C(=O)N(Cc4ccccc4)c4ccccc43)[C@H]2C)cc1
3. CCOC(=O)C1=CC[C@@H](c2ccccc2)N(S(=O)(=O)c2ccc(C)cc2)[C@H]1C

1. -0.932
2. -1.98
3. -4.32

Report z-score for each item below.
1. CCN1C(C)=C(C(=O)OC)[C@@H](c2ccccc2)N2C(=O)[C@@]3(C(=O)OC)O[C@@]12[C@@H]1C(=O)N(c2ccccc2)C(=O)[C@@H]13
2. COc1ccc([Si](C)(C)[C@@H]2[C@@H](CC(=O)N(CCO)Cc3ccccc3)O[C@]3(C(=O)N(Cc4cccc(N5CCC5=O)c4)c4ccccc43)[C@H]2C)cc1

1. -1.77
2. -5.72

State the recorded z-score for every item in the following list.
1. C[C@@H]1CC[C@H]2C(=O)N3[C@@H](CC[C@@H](C)[C@@H]3c3cccc(N4CCOCC4)c3)C(=O)N2[C@H]1c1cccc(Br)c1
2. C[C@H]1C2[C@H](Cc3ccccc3)NC(=O)[C@]23C(=O)N[C@H](Cc2ccccc2)C(=O)N[C@@H](Cc2ccccc2)C(=O)NC/C=C\C/C=C/C3[C@@H]2O[C@]12C (some centres not stated)
3. C[C@H]1NC(=O)[C@@H](C)NC(=O)[C@@]23C(=O)N[C@@H](Cc4ccccc4)C2[C@H](C)[C@@]2(C)O[C@H]2C3/C=C/C/C=C\CNC1=O (some centres not stated)
4. O=C1O[C@H](c2ccccc2)[C@H](c2ccccc2)N2[C@H]1[C@@H](C(=O)NC[C@H](O)c1ccccc1)[C@]1(C(=O)Nc3ccc(C#CC4=CCCCC4)cc31)[C@H]2c1ccc(OCCO)cc1
5. Cc1ccc(N2C(=O)c3ccccc3[C@@H](C(=O)NCC(F)(F)F)[C@@H]2c2ccc(CO)cc2)nc1
6. CN1C(=O)C2C=CC(C(O)c3ccc(N(C)C)cc3)N(Nc3ccc([N+](=O)[O-])cc3[N+](=O)[O-])C2C1=O (configuration not stated)
7. CO[C@H]1COC(=O)[C@@H](Cc2ccccc2)NC(=O)[C@@H](C)COC(=O)CC=C[C@@H]1C

1: -0.167; 2: -3.18; 3: -0.333; 4: -4.66; 5: -0.977; 6: 0.891; 7: 0.7

* * *

- study.system: Calmodulin-1 (Homo sapiens)
- assay.text: CALM1 binders on microarrays, EGTA buffer, profiling panel, biochemical, small-molecule microarray, Cy5-labelled CALM1 (AID 1111);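 also: labelled calmodulin applied in Tris saline Tween buffer holding calcium plus EGTA and DTT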
- condition.set: Cy5-CALM1 binding fluorescence, higher = more signal
property.label: composite z-score
Answers are plain numbers.

Below, 8 molecules whose answers are already recorded.
[[record]]
molecule = "CC(=O)NCCCC[C@@H]1NC(=O)[C@H]2C[C@@H](C(=O)NCCCCCCN(C)C)[C@@H](c3ccc(O)cc3)N2C1=O"
study_system = "Calmodulin-1 (Homo sapiens)"
value_observed = -0.382

[[record]]
molecule = "O=C(CS)NCCCCCCNC(=O)[C@@H]1C[C@@H]2C(=O)N[C@@H](Cc3ccccc3)C(=O)N2[C@@H]1c1ccc(O)cc1"
study_system = "Calmodulin-1 (Homo sapiens)"
value_observed = 2.31

[[record]]
molecule = "COc1ccc([Si](C)(C)[C@H]2[C@H](CC(=O)N(CCO)Cc3ccccc3)O[C@@]3(C(=O)N(C)c4ccccc43)[C@@H]2C)cc1"
study_system = "Calmodulin-1 (Homo sapiens)"
value_observed = -0.416

[[record]]
molecule = "Cc1ccc(N2C(=O)c3ccccc3[C@@H](C(=O)NCc3ccccc3)[C@@H]2c2ccc(CO)cc2)nc1"
study_system = "Calmodulin-1 (Homo sapiens)"
value_observed = -0.869

[[record]]
molecule = "COC(=O)[C@@]1(Cc2ccc(OC)cc2)[C@H]2c3cc(C(=O)N(C)C)n(CCc4ccc(OC)c(Br)c4)c3C[C@H]2CN1C(=O)c1ccccc1"
study_system = "Calmodulin-1 (Homo sapiens)"
value_observed = 2.23

[[record]]
molecule = "CC(=O)NCCCC[C@@H]1NC(=O)[C@H]2C[C@@H](C(=O)NCCCCCCN(C)C)[C@@H](c3cccc(OCCO)c3)N2C1=O"
study_system = "Calmodulin-1 (Homo sapiens)"
value_observed = -1.81

[[record]]
molecule = "C=CCC(OC(C)=O)[C@@H]1[C@@H](N(Cc2cc3ccccc3o2)C(=O)c2ccc(C)cc2)c2cc(OCCCO)ccc2N1C(=O)c1ccc2ccccc2n1 (stereo partly specified)"
study_system = "Calmodulin-1 (Homo sapiens)"
value_observed = -0.197

[[record]]
molecule = "COc1ccc([Si](C)(C)[C@@H]2[C@@H](CCO)O[C@]3(C(=O)N(Cc4ccc(NC(=O)[C@H](C)O)cc4)c4ccccc43)[C@H]2C)cc1"
study_system = "Calmodulin-1 (Homo sapiens)"
value_observed = 0.805


Each molecule below has a reported value. Please supply its composite z-score.
1. Cc1ccc(S[C@]2(C(=O)O)CC(=O)N(Cc3cc(C(F)(F)F)cc(C(F)(F)F)c3)[C@@H]2c2ccc(CO)cc2I)cc1
2. CO[C@@H]1COC(=O)[C@H](C)NC(=O)CC=C[C@@H](C)[C@H](NS(=O)(=O)c2ccc(C)cc2)COC(=O)CC=C[C@@H]1C
3. COC(=O)Cn1c(C(=O)N2CCCC2)cc2c1C[C@H]1CN(C(=O)c3ccccc3)[C@@](Cc3ccccc3)(C(=O)OC)[C@@H]21

[-0.279, -0.356, 0.79]
